molecular target: 5-HT7 receptor (Cavia porcellus, UniProt P50407); experiment: Isolated guinea-pig ileum assay: relaxation of substance P-induced contraction; conditions: read-out: Maximal Effect %
Sequence (P50407 whole entry): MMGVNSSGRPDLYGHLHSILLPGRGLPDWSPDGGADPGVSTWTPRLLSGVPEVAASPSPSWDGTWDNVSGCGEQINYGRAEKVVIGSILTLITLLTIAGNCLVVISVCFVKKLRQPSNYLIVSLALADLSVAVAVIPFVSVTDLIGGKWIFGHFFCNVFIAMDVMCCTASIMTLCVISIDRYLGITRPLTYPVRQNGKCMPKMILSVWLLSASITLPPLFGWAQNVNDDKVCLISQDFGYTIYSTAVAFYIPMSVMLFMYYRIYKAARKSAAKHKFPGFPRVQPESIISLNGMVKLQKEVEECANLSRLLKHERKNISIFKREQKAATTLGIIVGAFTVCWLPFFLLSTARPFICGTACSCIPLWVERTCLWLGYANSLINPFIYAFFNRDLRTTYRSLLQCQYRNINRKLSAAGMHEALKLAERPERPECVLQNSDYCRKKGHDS
Collected Emax values appear next to each entry.
Just so you know, I need the unit written after the number.

Known results for compounds:
Fill in: Emax of O=C(CCCCCN1CCN(c2ccccc2O)CC1)NC1CCCc2ccccc21 (centres unmarked) [Compound 46] is ___
0%

How about this compound: CC(=O)c1ccccc1N1CCN(CCCCCC(=O)NC2CCCc3ccccc32)CC1 (centres unmarked) [Compound 34]
79%

Follow-up item: CSc1ccccc1N1CCN(CCCCCC(=O)NC2CCCc3ccccc32)CC1 (centres unmarked) [Compound 44]
100%

Others:
Dear colleague, I am looking for the recorded Emax of the following compound: Cc1ccccc1N1CCN(CCCCCC(=O)NC2CCCc3ccccc32)CC1 (centres unmarked) [Compound 49]
98%

Now consider COc1ccccc1N1CCN(CCCCCC(=O)NC2CCCc3ccccc32)CC1 (centres unmarked) [Compound 28] and answer again.
91%

====

Examples of molecules with documented Ki follow.
target: 5-HT2A receptors (Rattus norvegicus); experiment: Radioligand binding assay ([3H]-ketanserin) at rat cortex membranes 5-HT2A receptors; details: read-out: Ki, nM 5-HT2A; [3H]-ketanserin, rat cortex membranes
Sequence (P14842 whole entry): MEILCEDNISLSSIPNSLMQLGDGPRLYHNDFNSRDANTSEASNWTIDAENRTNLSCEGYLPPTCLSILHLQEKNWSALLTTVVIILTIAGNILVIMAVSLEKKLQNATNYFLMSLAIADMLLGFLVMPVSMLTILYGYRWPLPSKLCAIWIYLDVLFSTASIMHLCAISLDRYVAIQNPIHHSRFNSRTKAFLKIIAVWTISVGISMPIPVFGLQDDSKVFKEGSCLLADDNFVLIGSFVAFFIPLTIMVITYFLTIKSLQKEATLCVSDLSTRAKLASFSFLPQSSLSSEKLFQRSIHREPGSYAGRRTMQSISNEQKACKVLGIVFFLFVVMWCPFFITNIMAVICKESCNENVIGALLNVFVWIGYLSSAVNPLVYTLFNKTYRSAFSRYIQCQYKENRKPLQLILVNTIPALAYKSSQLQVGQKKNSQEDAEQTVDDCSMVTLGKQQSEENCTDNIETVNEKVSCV
// units = nM; emit number, no label

Consider the worked cases shown below.
Which Ki is listed for O=C(CCCCCN1CCN(c2ccccc2[N+](=O)[O-])CC1)NC1CCCc2ccccc21 (centres unmarked) ?
282

What do you have for N#Cc1cccc(N2CCN(CCCCCC(=O)NC3CCCc4ccccc43)CC2)c1 (centres unmarked) ?
909

Now the molecule O=C(CCCCCN1CCN(c2ccccc2O)CC1)NC1CCCc2ccccc21 (centres unmarked)
3390

Do the same for Cc1ccccc1N1CCN(CCCCCC(=O)NC2CCCc3ccccc32)CC1 (centres unmarked) please
262

Further cases:
May I ask what Ki has been recorded for COc1ccc(OC)c(N2CCN(CCCCCC(=O)NC3CCCc4ccccc43)CC2)c1 (centres unmarked) ?
259

====

target: 5-HT7 receptor (Cavia porcellus, UniProt P50407); assay: Isolated guinea-pig ileum assay: relaxation of substance P-induced contraction; conditions: in the presence of antagonist SB-269970 (0.1 μM-3 μM)
Reported PA2 (vs SB-269970) values are given for each entry in this list.
Lab note: write the figure by itself, no unit.

Could you share which PA2 (vs SB-269970) value was measured for Cc1ccccc1N1CCN(CCCCCC(=O)NC2CCCc3ccccc32)CC1 (stereo not shown) ?
7.80

# repeat for COc1ccccc1N1CCN(CCCCCC(=O)NC2CCCc3ccccc32)CC1 (stereo not shown)
8.02

Then CSc1ccccc1N1CCN(CCCCCC(=O)NC2CCCc3ccccc32)CC1 (stereo not shown) ?
7.70

Continuing:
// PA2 (vs SB-269970) lookup, key: CC(=O)c1ccccc1N1CCN(CCCCCC(=O)NC2CCCc3ccccc32)CC1 (stereo not shown)
7.60

====

molecular target: rat cloned 5-HT7 receptor (Rattus norvegicus); construct: purchased PerkinElmer-NEN; host or cells: HEK-293; experiment: Radioligand binding assay ([3H]-LSD) at rat cloned 5-HT7Rs
Sequence (P32305 whole entry): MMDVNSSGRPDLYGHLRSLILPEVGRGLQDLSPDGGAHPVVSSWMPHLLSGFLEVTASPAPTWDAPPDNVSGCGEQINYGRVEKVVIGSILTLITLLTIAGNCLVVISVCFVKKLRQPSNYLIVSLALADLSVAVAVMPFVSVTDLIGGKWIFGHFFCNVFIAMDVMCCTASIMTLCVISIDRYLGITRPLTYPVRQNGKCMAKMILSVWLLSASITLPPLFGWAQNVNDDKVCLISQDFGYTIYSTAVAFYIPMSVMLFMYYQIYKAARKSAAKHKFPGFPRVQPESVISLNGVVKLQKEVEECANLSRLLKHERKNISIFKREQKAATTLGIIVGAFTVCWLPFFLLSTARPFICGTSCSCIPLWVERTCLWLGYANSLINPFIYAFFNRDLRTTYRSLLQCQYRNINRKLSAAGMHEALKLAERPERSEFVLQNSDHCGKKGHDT
measured parameter: 5-HT7R affinity (in words)

A selection of reference data follows.
Returns the measured 5-HT7R affinity (in words) for the input compound. Input: COc1ccccc1N1CCN(CCCCCC(=O)NC2CCCc3ccccc32)CC1 (stereo not shown)
high affinity

Same read-out for Cc1ccccc1N1CCN(CCCCCC(=O)NC2CCCc3ccccc32)CC1 (stereo not shown) ?
high affinity

Likewise for COc1ccccc1N1CCN(CCCC(=O)NC2CCCc3c(OC)cccc32)CC1 (stereo not shown) ?
moderate affinities

Also, CSc1ccccc1N1CCN(CCCCCC(=O)NC2CCCc3ccccc32)CC1 (stereo not shown) please.
high affinity

Request: O=C(CCCCCN1CCN(c2ccccc2O)CC1)NC1CCCc2ccccc21 (stereo not shown)
high affinity

Okay, now this compound:
Name the recorded 5-HT7R affinity (in words) for COc1ccccc1N1CCN(CCC(=O)NC2CCCc3c(OC)cccc32)CC1 (stereo not shown) .
moderate affinities
